system: NCI-H1048 cells; experiment: MTT proliferation assay, NCI-H1048; format: cell-based; conditions: 5 days compound exposure, 1:3 serial dilution starting at 10 μM;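 also: Dose-response in 96-well plates over 8 or 10 concentration points, with exposure spanning 3-4 cell doublings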
*1 amine or outer side, *2 acyl side, *3 side chain or, on linkers, in order; H or OH if unused. Where a SMILES comes first, the peptide text is derived from it. Bridges are numbered along the chain shown (N, C = ends). [ ]: non-standard residue; d: D form. The star is where a group is joined. X103 = CN1CCC(Oc2ccc(-c3ccc(Cl)cc3C[C@@H](C(=O)[*:2])N(C)[*:1])cc2)CC1; X19 = CN([C@@H](Cc1cc(Cl)ccc1-c1ccn2ccnc2c1)C(=O)[*:2])[*:1]; NMehhhLys(Me) = CN([C@@H](CCCCCCCN(C)[*:3])C(=O)[*:2])[*:1]; NMe3Pal(2-OMe,5-Cl) = CN[C@@H](Cc1cc(Cl)cnc1OC)C(=O)O; Oxane2carbonyl(2R-CF3) = O=C([C@@]1(C(F)(F)F)CCCCO1)*; cBuCO(3,3-F2-1-CF3) = O=C(C1(C(F)(F)F)CC(F)(F)C1)*; Pro(trans-4-F) = O=C(O)[C@@H]1C[C@@H](F)CN1; Gly(cPr) = N[C@H](C(=O)O)C1CC1
Collected GI50 values appear next to each entry.
Give the number first and the unit second.

For record CC(C)C[C@@H]1NC(=O)[C@@H](N(C)C(=O)[C@@H](NC(=O)[C@@H]2C[C@@H](F)CN2C(=O)C2(C(F)(F)F)CC(F)(F)C2)C2CC2)CCCCCCCN(C)C(=O)[C@H](Cc2cc(Cl)ccc2-c2ccc(OC3CCN(C)CC3)cc2)N(C)C1=O [Example 371] ({cBuCO(3,3-F2-1-CF3)}-[Pro(trans-4-F)][Gly(cPr)][NMehhhLys(Me)]L[X103]; lactam 3-C) the listed GI50 is 10 nM

***
For record CC(C)C[C@@H]1NC(=O)[C@@H](N(C)C(=O)[C@@H](NC(=O)[C@@H]2C[C@@H](F)CN2C(=O)C2(C(F)(F)F)CC(F)(F)C2)C2CC2)CCCCCCCN(C)C(=O)[C@H](Cc2cc(Cl)ccc2-c2ccn3ccnc3c2)N(C)C1=O [Example 236] ({cBuCO(3,3-F2-1-CF3)}-[Pro(trans-4-F)][Gly(cPr)][NMehhhLys(Me)]L[X19]; lactam 3-C) the listed GI50 is 10 nM

For record COc1ncc(Cl)cc1C[C@H]1C(=O)N(C)CCCCCCC[C@H](N(C)C(=O)[C@@H](NC(=O)[C@@H]2C[C@@H](F)CN2C(=O)[C@@]2(C(F)(F)F)CCCCO2)C2CC2)C(=O)N[C@@H](CC(C)C)C(=O)N1C [Example 223] ({Oxane2carbonyl(2R-CF3)}-[Pro(trans-4-F)][Gly(cPr)][NMehhhLys(Me)]L[NMe3Pal(2-OMe,5-Cl)]; lactam 3-C) the listed GI50 is 10 nM

====

biological target: CyclinA2/CDK2 (Homo sapiens, UniProt P20248); construct: purchased CRELUX Protein Services; experiment: Fluorescence Polarization (FP) competitive binding assay, Cyclin A2/Cdk2; settings: 8 nM Cyclin A2/Cdk2, 2 nM FAM probe; average of 2-3 independent experiments; read-out: Cyclin A FP IC50;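 also: plates equilibrated two hours at room temperature before polarization reading, IC50 fitted from eight-concentration compound titration curves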
*1 amine or outer side, *2 acyl side, *3 side chain or, on linkers, in order; H or OH if unused. Where a SMILES comes first, the peptide text is derived from it. Bridges are numbered along the chain shown (N, C = ends). [ ]: non-standard residue; d: D form. The star is where a group is joined. X146 = CC(C)C(=O)N1[C@@H]2CC[C@H]1C=C(c1ccc(Cl)cc1C[C@@H](C(=O)[*:2])N(C)[*:1])C2; NMePhe(2-(4-MorPh),5-Cl) = CN[C@@H](Cc1cc(Cl)ccc1-c1ccc(N2CCOCC2)cc1)C(=O)O; X162 = COc1cncc(-c2ccc(Cl)cc2C[C@@H](C(=O)[*:2])N(C)[*:1])c1; NMehhhLys(Me) = CN([C@@H](CCCCCCCN(C)[*:3])C(=O)[*:2])[*:1]; NMe(hhhLys) = CN([C@@H](CCCCCCCN[*:3])C(=O)[*:2])[*:1]; cBuCO(3,3-F2-1-CF3) = O=C(C1(C(F)(F)F)CC(F)(F)C1)*; Pro(trans-4-F) = O=C(O)[C@@H]1C[C@@H](F)CN1; X201 = O=C(C1(C(F)F)CC(F)(F)C1)*; Gly(cPr) = N[C@H](C(=O)O)C1CC1
Measured endpoint: IC50 (nM)
Number only, in nM; omit the unit.

Kindly note: CyclinA2/CDK2 (Homo sapiens, UniProt P20248), CC(C)C[C@@H]1NC(=O)[C@@H](N(C)C(=O)[C@@H](NC(=O)[C@@H]2C[C@@H](F)CN2C(=O)C2(C(F)(F)F)CC(F)(F)C2)C2CC2)CCCCCCCNC(=O)[C@H](Cc2cc(Cl)ccc2C2=C[C@@H]3CC[C@H](C2)N3C(=O)C(C)C)N(C)C1=O [Example 312] ({cBuCO(3,3-F2-1-CF3)}-[Pro(trans-4-F)][Gly(cPr)][NMe(hhhLys)]L[X146]; lactam 3-C) , IC50 value reported: 20

Kindly note: CyclinA2/CDK2 (Homo sapiens, UniProt P20248), COc1cncc(-c2ccc(Cl)cc2C[C@H]2C(=O)N(C)CCCCCCC[C@H](N(C)C(=O)[C@@H](NC(=O)[C@@H]3C[C@@H](F)CN3C(=O)C3(C(F)(F)F)CC(F)(F)C3)C3CC3)C(=O)N[C@@H](CC(C)C)C(=O)N2C)c1 [Example 199] ({cBuCO(3,3-F2-1-CF3)}-[Pro(trans-4-F)][Gly(cPr)][NMehhhLys(Me)]L[X162]; lactam 3-C) , IC50 value reported: 30

Then there is this compound:
Kindly note: CyclinA2/CDK2 (Homo sapiens, UniProt P20248), CC(C)C[C@@H]1NC(=O)[C@@H](N(C)C(=O)[C@@H](NC(=O)[C@@H]2C[C@@H](F)CN2C(=O)C2(C(F)F)CC(F)(F)C2)C2CC2)CCCCCCCN(C)C(=O)[C@H](Cc2cc(Cl)ccc2-c2ccc(N3CCOCC3)cc2)N(C)C1=O [Example 350] (X201-[Pro(trans-4-F)][Gly(cPr)][NMehhhLys(Me)]L[NMePhe(2-(4-MorPh),5-Cl)]; lactam 3-C) , IC50 value reported: 20

====

tested on: OVCAR3 cells; assay: MTT proliferation assay, OVCAR3; assay type: cell-based; details: 5 days compound exposure, 1:3 serial dilution starting at 10 μM;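 also: compound given as an 8- or 10-point series, one day after plating, with exposure covering roughly 3-4 cell doublings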
*1 amine or outer side, *2 acyl side, *3 side chain or, on linkers, in order; H or OH if unused. Where a SMILES comes first, the peptide text is derived from it. Bridges are numbered along the chain shown (N, C = ends). [ ]: non-standard residue; d: D form. The star is where a group is joined. X50 = CN([C@@H](Cc1cc(Cl)ccc1-c1ccc(N2CCN(C3COC3)CC2)cc1)C(=O)[*:2])[*:1]; X140 = CN([C@@H](Cc1cc(Cl)ccc1-c1ccc(Oc2cccnc2)cc1)C(=O)[*:2])[*:1]; NMehhhLys(Me) = CN([C@@H](CCCCCCCN(C)[*:3])C(=O)[*:2])[*:1]; cBuCO(3,3-F2-1-CF3) = O=C(C1(C(F)(F)F)CC(F)(F)C1)*; Pro(trans-4-F) = O=C(O)[C@@H]1C[C@@H](F)CN1; Gly(cPr) = N[C@H](C(=O)O)C1CC1
Measured endpoint: GI50
Give the number first and the unit second.

For record CC(C)C[C@@H]1NC(=O)[C@@H](N(C)C(=O)[C@@H](NC(=O)[C@@H]2C[C@@H](F)CN2C(=O)C2(C(F)(F)F)CC(F)(F)C2)C2CC2)CCCCCCCN(C)C(=O)[C@H](Cc2cc(Cl)ccc2-c2ccc(N3CCN(C4COC4)CC3)cc2)N(C)C1=O [Example 346] ({cBuCO(3,3-F2-1-CF3)}-[Pro(trans-4-F)][Gly(cPr)][NMehhhLys(Me)]L[X50]; lactam 3-C) the listed GI50 is 10 nM

For record CC(C)C[C@@H]1NC(=O)[C@@H](N(C)C(=O)[C@@H](NC(=O)[C@@H]2N[C@@H](F)CC2C(=O)C2(C(F)(F)F)CC(F)(F)C2)C2CC2)CC=CCCCCN(C)C(=O)[C@H](Cc2cc(Cl)cnc2OC(C)C)N(C)C1=O (stereo partly drawn) [Example 130] the listed GI50 is 1550 nM

For record CC(C)C[C@@H]1NC(=O)[C@@H](N(C)C(=O)[C@@H](NC(=O)[C@@H]2C[C@@H](F)CN2C(=O)C2(C(F)(F)F)CC(F)(F)C2)C2CC2)CCCCCCCN(C)C(=O)[C@H](Cc2cc(Cl)ccc2-c2ccc(Oc3cccnc3)cc2)N(C)C1=O [Example 385] ({cBuCO(3,3-F2-1-CF3)}-[Pro(trans-4-F)][Gly(cPr)][NMehhhLys(Me)]L[X140]; lactam 3-C) the listed GI50 is 20 nM
